melting point listing for selected molecules.

Query: So what's the measured melting point for this one? CN1CCN(c2cccc(S(=O)(=O)N3CCC(c4ccccc4F)CC3)n2)CC1 [Example 88]
Result: 240.5 to 242 °C

Query: So what's the measured melting point for this one? CN1CCN(c2cccc(C(=O)N(C)Cc3ccccc3Cl)n2)CC1 [Example 65]
Result: 73 to 74 °C

Query: So what's the measured melting point for this one? CN1CCN(c2cccc(C(=O)N3CCCC(c4ccccc4F)C3)n2)CC1 (stereo not drawn) [Example 58]
Result: 118 to 119 °C

Query: So what's the measured melting point for this one? CN1CCN(c2cccc(C(=O)N(C)Cc3ccccc3F)n2)CC1 [Example 64]
Result: 80 to 81 °C

Query: So what's the measured melting point for this one? Cc1ccc(CN(C)C(=O)c2cccc(N3CCN(C)CC3)n2)cc1 [Example 90]
Result: 98 to 99 °C

Further cases:
Query: So what's the measured melting point for this one? Cc1cccc(OC2CCN(C(=O)c3cccc(C4CCN(C)C4)n3)CC2)c1 (stereo not drawn) [Example 17]
Result: 89 to 90 °C

Query: So what's the measured melting point for this one? CN1CC(c2cccc(C(=O)N3CCC(Oc4ccc(F)cc4)CC3)n2)C1 [Example 97]
Result: 141.6 to 142.9 °C

Query: So what's the measured melting point for this one? Cc1ccccc1C1CCCCN1C(=O)c1cccc(N2CCCNCC2)n1 (stereo not drawn) [Example 33]
Result: 123.3 to 124 °C

Query: So what's the measured melting point for this one? CN1CCCN(c2cccc(C(=O)N3CCC[C@H](Oc4cccc(Cl)c4)C3)n2)CC1 [Example 87]
Result: 110 to 112 °C

---

melting point listing for selected compounds.
Where a name gives a salt, the structure may show the parent alone.

Below are worked cases with known answers.
Query: So what's the measured melting point for this one? O=C(c1cccc(N2CCCNCC2)n1)N1CCC[C@H](Oc2ccccc2F)C1 [Example 40]
Result: 158 to 159 °C

Query: So what's the measured melting point for this one? O=C(c1cccc(N2CCNCC2)n1)N1CCCCC1c1cccc(F)c1 (stereo not drawn) [Example 27]
Result: 156.8 to 157 °C

Query: So what's the measured melting point for this one? Cc1cccc(C2CCCCN2C(=O)c2cccc(N3CCCNCC3)n2)c1 (stereo not drawn) [Example 34]
Result: 138.5 to 139 °C

Further cases:
Query: So what's the measured melting point for this one? Cc1ccccc1C1CCCCN1C(=O)c1cccc(N2CCNCC2)n1 (stereo not drawn) (as salt: hydrochloride) [Example 26]
Result: 105.6 to 106 °C

Query: So what's the measured melting point for this one? CN1CCCN(c2cccc(C(=O)N3CCCC[C@@H]3c3cccc(F)c3)n2)CC1 [Example 80]
Result: 155 to 156.2 °C

Query: So what's the measured melting point for this one? CN1CCN(c2cccc(C(=O)N3CCCC[C@@H]3c3cccc(F)c3)n2)CC1 [Example 55]
Result: 122.7 to 123 °C

Query: So what's the measured melting point for this one? CN1CCC(c2cccc(C(=O)N3CCC(Oc4ccccc4Cl)CC3)n2)CC1 [Example 96]
Result: 119 to 121 °C

Query: So what's the measured melting point for this one? Cc1ccccc1C1=CCN(C(=O)c2cccc(N3CCN(C)CC3)n2)CC1 [Example 24]
Result: 160.7 to 162.3 °C

Query: So what's the measured melting point for this one? CN1CCN(c2cccc(C(=O)N3CCCC[C@@H]3c3ccc(F)cc3)n2)CC1 [Example 67]
Result: 130.8 to 131.5 °C

Query: So what's the measured melting point for this one? CN1CCN(c2cccc(C(=O)N3CCCC[C@@H]3c3ccccc3F)n2)CC1 [Example 57]
Result: 111.7 to 112 °C

Query: So what's the measured melting point for this one? Cc1ccc(F)cc1C1CCN(C(=O)c2cccc(C3CCN(C)C3)n2)CC1 (stereo not drawn) [Example 112]
Result: 139.6 to 141.41 °C

Query: So what's the measured melting point for this one? CN1CCN(c2cccc(C(=O)N3CCC(c4ccc(F)cc4F)CC3)n2)CC1 [Example 102]
Result: 148.6 to 149.5 °C

Query: So what's the measured melting point for this one? Cc1ccccc1[C@@H](C)N(C)C(=O)c1cccc(N2CCN(C)CC2)n1 [Example 61]
Result: 142 to 143 °C

Query: So what's the measured melting point for this one? Cc1cc(F)ccc1C1CCN(C(=O)c2cccc(C3CCN(C)C3)n2)CC1 (stereo not drawn) [Example 106]
Result: 116.2 to 117.4 °C

Query: So what's the measured melting point for this one? Cc1cccc(O[C@@H]2CCN(C(=O)c3cccc(N4CCCN(C)CC4)n3)C2)c1 [Example 19]
Result: 82 to 84 °C

---

Endpoint name: melting point

Below are worked cases with known answers.
Query: So what's the measured melting point for this one? CN1CCN(c2cccc(C(=O)N(C)Cc3cccc(Cl)c3)n2)CC1 [Example 71]
Result: 81 to 82 °C

Query: So what's the measured melting point for this one? CN1CCN(c2cccc(C(=O)N(C)Cc3ccccc3C(F)(F)F)n2)CC1 [Example 92]
Result: 199.5 to 200.6 °C

Query: So what's the measured melting point for this one? Cc1cccc(O[C@H]2CCN(C(=O)c3cccc(N4CCCN(C)CC4)n3)C2)c1 [Example 68]
Result: 78 to 80 °C

Query: So what's the measured melting point for this one? Cc1cccc(CN(C)C(=O)c2cccc(N3CCN(C)CC3)n2)c1 [Example 73]
Result: 101 to 102 °C

Query: So what's the measured melting point for this one? Cc1ccc(O[C@@H]2CCCN(C(=O)c3cccc(N4CCCNCC4)n3)C2)cc1 [Example 54]
Result: 140 °C

Query: So what's the measured melting point for this one? Cc1ccc(O[C@H]2CCCN(C(=O)c3cccc(N4CCCNCC4)n3)C2)cc1 [Example 41]
Result: 157.6 to 158.2 °C

Further cases:
Query: So what's the measured melting point for this one? CN1CCN(c2cccc(C(=O)N3CCC(c4ccccc4F)CC3)n2)CC1 [Example 20]
Result: 111 to 113 °C

Query: So what's the measured melting point for this one? Cc1cccc(O[C@H]2CCCN(C(=O)c3cccc(N4CCCN(C)CC4)n3)C2)c1 [Example 86]
Result: 118 to 120 °C

Query: So what's the measured melting point for this one? O=C(c1cccc(N2CCCNCC2)n1)N1CCC[C@H](Oc2cccc(F)c2)C1 [Example 38]
Result: 96.9 to 97.5 °C

---

melting point listing for selected molecules.
Where a name gives a salt, the structure may show the parent alone.

Query: So what's the measured melting point for this one? O=C(c1cccc(N2CCCNCC2)n1)N1CC[C@H](Oc2ccccc2F)C1 (as salt: hydrochloride) [Example 30]
Result: 75 to 77 °C

Query: So what's the measured melting point for this one? Cc1ccccc1[C@H]1CCCCN1C(=O)c1cccc(N2CCN(C)CC2)n1 [Example 62]
Result: 188 to 188.7 °C

Query: So what's the measured melting point for this one? Cc1cccc([C@@H](C)N(C)C(=O)c2cccc(N3CCN(C)CC3)n2)c1 [Example 93]
Result: 126 to 128 °C

Query: So what's the measured melting point for this one? O=S(=O)(c1cccc(N2CCNCC2)n1)N1CCC(c2ccccc2F)CC1 (as salt: hydrochloride) [Example 51]
Result: 211 to 212.2 °C

Query: So what's the measured melting point for this one? CN1CCCN(c2cccc(C(=O)N3CCC[C@H](Oc4cccc(F)c4)C3)n2)CC1 [Example 85]
Result: 113 to 115 °C

Query: So what's the measured melting point for this one? Cc1cccc(C2CCCCN2C(=O)c2cccc(N3CCNCC3)n2)c1 (centres unmarked) [Example 28]
Result: 154.1 to 155.5 °C

Query: So what's the measured melting point for this one? Cc1cccc(O[C@@H]2CCCN(C(=O)c3cccc(N4CCCNCC4)n3)C2)c1 [Example 48]
Result: 158 to 160 °C

---

inhibition at 1 µM listing for selected compounds.
- Target or test system: cloned human 5-HT6 receptor (Homo sapiens, UniProt P50406)
- Construct: host or cells: HeLa cells, G-418 selection, membrane preparation
- Sequence (P50406 whole entry): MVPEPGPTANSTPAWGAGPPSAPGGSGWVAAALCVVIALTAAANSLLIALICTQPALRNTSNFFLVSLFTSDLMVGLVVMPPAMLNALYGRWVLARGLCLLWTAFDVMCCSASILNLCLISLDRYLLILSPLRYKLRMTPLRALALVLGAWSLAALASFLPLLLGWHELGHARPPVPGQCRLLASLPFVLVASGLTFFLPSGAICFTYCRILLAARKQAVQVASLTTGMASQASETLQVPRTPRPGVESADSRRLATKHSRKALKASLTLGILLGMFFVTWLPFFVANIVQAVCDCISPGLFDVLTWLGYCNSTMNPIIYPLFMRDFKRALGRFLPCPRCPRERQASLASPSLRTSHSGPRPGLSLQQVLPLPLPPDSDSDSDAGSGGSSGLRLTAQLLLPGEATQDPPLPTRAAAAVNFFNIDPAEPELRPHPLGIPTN
- Procedure details: 5-HT6 Receptor Binding Assay ([3H]-LSD radioligand, SPA)
- Assay context: read-out: 5HT6 % inh @ 1 uM
Give the number; % is assumed, so skip it.

Below are worked cases with known answers.
Query: So what's the measured inhibition at 1 µM for this one? CN1CCN(c2cccc(C(=O)N3CCCC(c4cccc(F)c4)C3)n2)CC1 (stereo not drawn)
Result: 90.8

Query: So what's the measured inhibition at 1 µM for this one? O=C(c1cccc(N2CCCNCC2)n1)N1CC[C@H](Oc2ccccc2F)C1
Result: 98.8

Query: So what's the measured inhibition at 1 µM for this one? Cc1cccc(C2CCCCN2C(=O)c2cccc(N3CCCNCC3)n2)c1 (stereo not drawn)
Result: 95.3

Query: So what's the measured inhibition at 1 µM for this one? CN1CCN(c2cccc(C(=O)N3CCC(Cc4ccccc4F)CC3)n2)CC1
Result: 101

Query: So what's the measured inhibition at 1 µM for this one? Cc1cccc(C2CCCCN2C(=O)c2cccc(N3CCNCC3)n2)c1 (stereo not drawn)
Result: 94.6

Further cases:
Query: So what's the measured inhibition at 1 µM for this one? O=C(c1cccc(N2CCNCC2)n1)N1CCC(c2ccccc2F)CC1
Result: 96.8

Query: So what's the measured inhibition at 1 µM for this one? O=C(c1cccc(N2CCCNCC2)n1)N1CCC[C@H](Oc2ccccc2F)C1
Result: 100

Query: So what's the measured inhibition at 1 µM for this one? Cc1ccc(F)cc1C1CCN(C(=O)c2cccc(N3CCN(C)CC3)n2)CC1
Result: 101

Query: So what's the measured inhibition at 1 µM for this one? Cc1ccc(O[C@H]2CCN(C(=O)c3cccc(N4CCCNCC4)n3)C2)cc1
Result: 97.7
